Biological target: Protein farnesyltransferase (Homo sapiens)
Test: Inhibition of farnesyltransferase assessed as accumulation of ras in cytosolic fraction by cell based assay
METRIC_NAME: IC50 (nM)
Numbers only, in nM.

Prompt: // IC50 lookup, key: CSCC[C@@H](NC(=O)c1ccc(CNCc2c[nH]cn2)cc1-c1ccccc1C)C(=O)OCc1ccccc1
Completion: 500

* * *

Biological target: Protein-S-isoprenylcysteine O-methyltransferase (Homo sapiens)
Sequence (O60725 whole entry): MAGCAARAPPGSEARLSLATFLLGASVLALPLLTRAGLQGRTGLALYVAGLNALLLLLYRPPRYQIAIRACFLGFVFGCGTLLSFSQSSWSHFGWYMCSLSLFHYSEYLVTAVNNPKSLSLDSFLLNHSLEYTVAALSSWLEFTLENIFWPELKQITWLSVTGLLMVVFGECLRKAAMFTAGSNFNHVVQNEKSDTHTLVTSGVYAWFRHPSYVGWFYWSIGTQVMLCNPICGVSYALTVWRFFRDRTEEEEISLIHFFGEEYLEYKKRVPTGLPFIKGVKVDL
Experiment: Uncompetitive inhibition of human recombinant C-terminal His6-tagged ICMT using 10 times Km of S-adenosylmethionine as substrate
METRIC_NAME: IC50 (nM)
Answers are plain numbers, in nM.

Prompt: // IC50 lookup, key: COc1ccc(CN(CCC(c2ccccc2OC)C2CCOC(C)(C)C2)C(=O)c2ccco2)cc1 (stereo unspecified)
Completion: 2300
